Target: GRK1 (Bos taurus)
Construct: Bovine GRK1_1–535, bovine and human GRK2S670A; made in house
Sequence (P28327 1-535): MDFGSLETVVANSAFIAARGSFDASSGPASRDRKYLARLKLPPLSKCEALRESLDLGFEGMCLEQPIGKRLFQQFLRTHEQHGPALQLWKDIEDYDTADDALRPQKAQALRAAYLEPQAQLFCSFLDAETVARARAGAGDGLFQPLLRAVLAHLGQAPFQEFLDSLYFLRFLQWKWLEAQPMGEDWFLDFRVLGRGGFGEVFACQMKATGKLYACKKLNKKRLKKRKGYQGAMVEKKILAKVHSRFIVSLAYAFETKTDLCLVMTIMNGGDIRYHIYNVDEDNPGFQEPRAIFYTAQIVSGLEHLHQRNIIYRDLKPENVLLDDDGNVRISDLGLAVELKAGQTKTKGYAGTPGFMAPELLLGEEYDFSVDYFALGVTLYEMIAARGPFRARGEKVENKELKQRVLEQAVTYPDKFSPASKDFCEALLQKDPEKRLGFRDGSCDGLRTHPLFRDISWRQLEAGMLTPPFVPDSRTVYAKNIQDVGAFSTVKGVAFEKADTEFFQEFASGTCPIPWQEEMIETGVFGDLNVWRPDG
Experiment: In vitro phosphorylation assay (tubulin, 5 μM ATP), GRK1
Type: biochemical, bovine
MEASURED PROPERTY: pIC50
Answers are plain numbers, as −log10 of the molar value.

Ask: Please report the recorded pIC50 for CCCN1CCC(c2ccc(Nc3nc(Nc4cc(F)ccc4C(N)=O)c4cc[nH]c4n3)c(OC)c2)CC1 [GSK1326255A] .
Result: 3.30

* * *

Target: protein kinase A (PKA) (Mus musculus)
Construct: His tag (inferred from pET15b vector and Ni-NTA column) (N); host or cells: E. coli Rosetta(DE3)pLysS
Assay: DSF retest (confirmation), PKA
Format: binding
Conditions: relative to intrinsic melting point of the kinase
Entries whose PKA ΔTm is below 4 °C take Satisfied; entries at or above 4 °C take Not satisfied.

Take a look at these entries with their results.
[[record]]
molecule = "CNC(=O)c1ncccc1Nc1nc(Nc2cc3c(cc2OC)CCCN3C(=O)CN(C)C)nc2[nH]ccc12 [GSK2220400A]"
cat = "Satisfied"

[[record]]
molecule = "CC1=C(C(=O)Nc2ccc3[nH]ncc3c2)C(c2ccc(F)cc2)NC(=O)N1 (stereo not shown) [GSK180736A]"
cat = "Satisfied"

[[record]]
molecule = "CCCN1CCC(c2ccc(Nc3nc(Nc4cc(F)ccc4C(N)=O)c4cc[nH]c4n3)c(OC)c2)CC1 [GSK1326255A]"
cat = "Satisfied"

[[record]]
molecule = "CCn1c(-c2nonc2N)nc2c(C#CC(C)(C)O)nc(O[C@@H](CN)c3ccccc3)cc21 [GSK1007102B]"
cat = "Not satisfied"

[[record]]
molecule = "COc1cc2c(cc1Nc1nc(Nc3ccsc3C(N)=O)c3cc[nH]c3n1)N(C(=O)CN(C)C)CCC2 [GSK2110236A]"
cat = "Satisfied"

[[record]]
molecule = "Fc1cccc(COc2ccc(Nc3ncnc4cc(-c5ccc[nH]5)sc34)cc2Cl)c1 [GW693881A]"
cat = "Satisfied"


Could you now look at the following molecule, please?
Ask: Item CC1=C(C(=O)Nc2cc(Cl)c3[nH]ncc3c2)C(c2ccc(C(F)(F)F)cc2)CC(=O)N1 (stereo not shown) [GSK466317A] : PKA ΔTm beneath 4 °C, strictly?
Result: Not satisfied

* * *

Molecular target: protein kinase A (PKA) (Mus musculus)
Construct: His tag (inferred from pET15b vector and Ni-NTA column) (N); host or cells: E. coli Rosetta(DE3)pLysS
Assay: DSF retest (confirmation), PKA
Assay type: binding
Details: 0.2 mg mL^–1 kinase
Answer each item with its documented PKA Tm.

Examples with their reported PKA Tm follow.
[[record]]
molecule = "CNC(=O)c1ncccc1Nc1nc(Nc2cc3c(cc2OC)CCCN3C(=O)CN(C)C)nc2[nH]ccc12 [GSK2220400A]"
measured_property = "PKA Tm"
assay_value = "45.4 °C"

[[record]]
molecule = "CC1=C(C(=O)Nc2ccc3[nH]ncc3c2)C(c2ccc(Cl)c(Cl)c2)CC(=O)N1 (centres unmarked) [GSK299115A]"
measured_property = "PKA Tm"
assay_value = "49.5 °C"

[[record]]
molecule = "CC1=C(C(=O)Nc2ccc3[nH]ncc3c2)C(c2ccc3ccccc3c2)CC(=O)N1 (centres unmarked) [GSK270822A]"
measured_property = "PKA Tm"
assay_value = "51.9 °C"

[[record]]
molecule = "COc1cc2c(cc1Nc1nc(Nc3ccsc3C(N)=O)c3cc[nH]c3n1)N(C(=O)CN(C)C)CCC2(C)C [GSK2163632A]"
measured_property = "PKA Tm"
assay_value = "48.5 °C"

[[record]]
molecule = "COc1cc2c(cc1Nc1nc(Nc3ccsc3C(N)=O)c3cc[nH]c3n1)N(C(=O)CN(C)C)CCC2 [GSK2110236A]"
measured_property = "PKA Tm"
assay_value = "46.6 °C"


Each molecule below has a reported value. Please supply its PKA Tm.
1. CC1=C(C(=O)Nc2ccc3[nH]ncc3c2)C(c2ccc(F)cc2)NC(c2ccc(C(F)(F)F)nc2)=N1 (centres unmarked) [GSK317354A]
2. CCCN1CCC(Oc2cc(Nc3nc(Nc4cccc(F)c4C(N)=O)c4cc[nH]c4n3)c(OC)cc2Cl)CC1 [GSK1713088A]
3. Fc1cccc(COc2ccc(Nc3ncnc4cc(-c5ccc[nH]5)sc34)cc2Cl)c1 [GW693881A]

Result:
1. 45.9 °C
2. 45.8 °C
3. 47.4 °C

Provenance of the data: paper PMC4301037
